Test system: mitochondrial membrane potential (MMP) in HepG2 cells
assay explanation: qHTS mitochondrial membrane potential (MMP) assay with m-MPI dye, multiplexed with CellTiter-Glo cell viability
Type: cell-based, human
condition parameters: Homo sapiens, HepG2, 1 h; read-out: Efficacy
Reported Emax is given for each of the following compounds.
test readout: Emax (%)

- compound: "Nc1ccc(N)c2c1C(=O)c1ccccc1C2=O [1,4-Diaminoanthraquinone]"
  test readout: "Emax"
  unit tag: "%"
  value: 82
- compound: "O=C1OC2(c3ccc(O)cc3Oc3cc(O)ccc32)c2ccccc21 [Fluorescein]"
  test readout: "Emax"
  unit tag: "%"
  value: 112
- compound: "CCN1/C(=C/C=C/C=C/c2sc3ccccc3[n+]2CC)Sc2ccccc21 [Dithiazanine iodide]"
  test readout: "Emax"
  unit tag: "%"
  value: 85.4

----------
Test system: mitochondrial membrane potential (MMP) in HepG2 cells
assay explanation: qHTS mitochondrial membrane potential (MMP) assay with m-MPI dye, multiplexed with CellTiter-Glo cell viability
Format: cell-based, human
condition parameters: HepG2 cells, 1 hr treatment; call from triplicate runs, multichannel readout and cell viability
Counter-ions that a name gives are not always drawn.
test readout: MMP assay activity outcome (active antagonist / inactive / inconclusive)

- molecule: "CC[C@@]1(O)C[C@H](O[C@H]2C[C@H](N(C)C)[C@H](O[C@H]3C[C@H](O)[C@H](O[C@H]4CCC(=O)[C@H](C)O4)[C@H](C)O3)[C@H](C)O2)c2c(cc3c(c2O)C(=O)c2c(O)cccc2C3=O)[C@H]1C(=O)OC [aclarubicin hydrochloride, reference compound]"
  value: "active"
- molecule: "Cc1ccc(C(=O)c2ccccc2)cc1 [4-methylbenzophenone]"
  value: "inactive"
- molecule: "O=C(c1ccccc1)c1ccccc1O [2-hydroxybenzophenone]"
  value: "inactive"
- molecule: "CC(C)(c1ccccc1)c1ccc(O)cc1 [4-(1-methyl-1-phenylethyl)phenol]"
  value: "active"
- molecule: "O=C(c1ccc(Cl)cc1)c1ccc(Cl)cc1 [4,4´-dichlorobenzophenone]"
  value: "inactive"

----------
System: mitochondrial membrane potential (MMP) in HepG2 cells
assay explanation: qHTS mitochondrial membrane potential (MMP) assay with m-MPI dye, multiplexed with CellTiter-Glo cell viability
Format: cell-based, human
condition parameters: Homo sapiens, HepG2, 1 h; read-out: Efficacy

- compound: "CN(C)c1ccc(C(=C2C=CC(=[N+](C)C)C=C2)c2ccc(N(C)C)cc2)cc1 [Gentian violet]"
  Emax: "91.9%"
- compound: "CCC/C=C/C=C/C(=O)O[C@H]1/C(=C/C(=O)OC)C[C@H]2C[C@H]([C@@H](C)O)OC(=O)C[C@H](O)C[C@@H]3C[C@H](OC(C)=O)C(C)(C)[C@](O)(C[C@@H]4C/C(=C/C(=O)OC)C[C@H](/C=C/C(C)(C)[C@]1(O)O2)O4)O3 [bryostatin 1, Bryostatin 1, reference compound]"
  Emax: "105%"
- compound: "CCOCn1c(-c2ccc(Cl)cc2)c(C#N)c(Br)c1C(F)(F)F [Chlorfenapyr]"
  Emax: "105%"
- compound: "O=C(Nc1ccc([N+](=O)[O-])cc1Cl)c1cc(Cl)ccc1O [Niclosamide, reference compound]"
  Emax: "97.7%"
- compound: "C[C@@H]1O[C@@H](O[C@@H]2C=C3CC[C@@H]4[C@H](CC[C@]5(C)[C@@H](c6ccc(=O)oc6)CC[C@]45O)[C@@]3(C)CC2)[C@H](O)[C@H](O)[C@H]1O [Proscillaridin, reference compound]"
  Emax: "72.4%"

----------
Tested on: mitochondrial membrane potential (MMP) in HepG2 cells
assay explanation: qHTS mitochondrial membrane potential (MMP) assay with m-MPI dye, multiplexed with CellTiter-Glo cell viability
Type: cell-based, human
condition parameters: HepG2 cells, 1 hr treatment; call from triplicate runs, multichannel readout and cell viability
test readout: MMP assay activity outcome (active antagonist / inactive / inconclusive)

- compound: "COc1ccc(C(=O)c2ccc(C)cc2)c(O)c1"
  value: "not active"
- compound: "Oc1c(Cl)c(Cl)c(Cl)c(Cl)c1Cl"
  value: "active"
- compound: "Nc1ccc(O)cc1"
  value: "active"
- compound: "COc1ccc(C(=O)c2ccccc2)c(O)c1 [2-hydroxy-4-methoxybenzophenone]"
  value: "not active"

----------
System: mitochondrial membrane potential (MMP) in HepG2 cells
assay explanation: qHTS mitochondrial membrane potential (MMP) assay with m-MPI dye, multiplexed with CellTiter-Glo cell viability
Assay type: cell-based, human
condition parameters: Table S4, 20 most potent active compounds for the MMP screen; HepG2, 1 hr
test readout: Efficacy (%)

- molecule: "CCN=C1C=CC(=C(c2ccc(N(CC)CC)cc2)c2ccc(N(CC)CC)cc2)c2ccccc21.Cl"
  system: "mitochondrial membrane potential (MMP) in HepG2 cells"
  value: 86.6
- molecule: "Cl.N=C1C=CC(=C(c2ccc(N)cc2)c2ccc(N)cc2)C=C1 [C.I. Basic red 9 monohydrochloride]"
  system: "mitochondrial membrane potential (MMP) in HepG2 cells"
  value: 95.3
- molecule: "NNc1nc(-c2ccc(N)cc2)cs1 [2-Hydrazino-4-(4-aminophenyl) thiazole]"
  system: "mitochondrial membrane potential (MMP) in HepG2 cells"
  value: 82.5
- molecule: "CCN1/C(=C/C=C/c2ccc3ccccc3[n+]2CC)C=Cc2ccccc21.[I-]"
  system: "mitochondrial membrane potential (MMP) in HepG2 cells"
  value: 90.7
